Target: T1, human IL-2Rβ (human, UniProt P14784 27-240, limits assumed)
T1 construct: recombinant protein, coated or immobilised; also called hu IL-2R; IL-2R beta
T1 sequence: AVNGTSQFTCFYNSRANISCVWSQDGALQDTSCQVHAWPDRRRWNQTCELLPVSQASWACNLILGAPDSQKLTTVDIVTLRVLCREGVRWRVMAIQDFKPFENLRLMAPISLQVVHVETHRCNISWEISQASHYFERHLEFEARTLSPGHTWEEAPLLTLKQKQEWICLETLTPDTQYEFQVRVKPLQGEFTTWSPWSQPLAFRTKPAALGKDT
Test: SPR, P.E. off-rate
quantity: koff (s⁻¹)
Give the value in s⁻¹ but do not write s⁻¹ after it.

>  <binder>
FJ1427 P035MP02D01 (VHH, soluble VHH in periplasmic extract; also called clone nr; 100) VHH: QVQLQESGGGLVQTGGSLRLSCAASGSQFINDVMGWYRQVPGKQRELVADMDDTGSTKYADSVKGRFTILRDSVKNTAYLQMSNLKPEDTGVYYCKAGLWIKGRHSDYWGQGTQVTVSS

>  <units-label>
s⁻¹

>  <measured-number>
0.000167

$$$$

Pending binder:
[in] Looking for the measured koff of FJ1427 P035MP02G02 (VHH, soluble VHH in periplasmic extract; also called clone nr) VHH: QVQLVESGGGLVQPGGSLRLSCAASGSHFISDVMGWYRQVPGKQRELVADMADGGSVKYGDSVKGRFTILRDSVKNTVTLQMSSLNPEDTGVYYCKAGLWITGRHFDYWGQGIQVTVTS , can you help?
[out] 0.000112
